In this section we review reported koff values for a set of binders.
- tested target: T1, hK1 (human tissue kallikrein 1), recombinant (human, UniProt P06870 25-262)
- T1 construct: Expressed in P. pastoris from KLK1 cDNA and purified; enzymatically active; also called KLK1; Recombinant (Pichia) Kallikrein
- assay protocol: SPR
Answer format: numeric, s⁻¹ implied, no suffix.

Examples from the recorded data:
binder	koff, s⁻¹
M0135-F03 (Fab, V domains shown) VH: EVQLLESGGGLVQPGGSLRLSCAASGFTFSHYVMIWVRQAPGKGLEWVSWIYPSGGNTIYADSVKGRFTISRDNSKNTLYLQMNSLRAEDTATYYCARVGVWYGMDVWGQGTTVTVSS VL: DIQMTQSPATLSLSPGERATLSCRASQSVSSYLAWYQQKPGQAPRLLIYDASNRATGIPARFSGSGSGTDFTLTISSLEPEDFAVYYCQQRSNWPSPIAFGQGTRLEIKR	0.000625
M0104-H12 (Fab, V domains shown) VH: EVQLLESGGGLVQPGGSLRLSCAASGFTFSYYQMSWVRQAPGKGLEWVSRIGPSGGLTSYADSVKGRFTISRDNSKNTLYLQMNSLRAEDTAVYYCARVGVWYGMDVWGQGTLVTVSS VL: AQSELTQPPSASGSPGQSVTISCTGTSSDVGAYNYVSWYQQHPGKAPKLIIYEVNKRPSGVPDRFSASKSGNTASLTVSGLQAEDEADYYCNSYAGSNSLIFGGGTKLTVLG	0.00138

Returns the measured koff for the input binder. Input: M0107-B05 (Fab, V domains shown) VH: EVQLLESGGGLVQPGGSLRLSCAASGFTFSHYLMMWVRQAPGKGLEWVSSIRSSGGITRYADSVKGRFTISRDNSKNTLYLQMNSLRAEDTAVYYCARVGYYYGMDVWGQGTTVTVSS VL: AQSELTQPASVSGSPGQSITISCTGTSSDVGAYNYVSWYQQHPGKVPKLMIYEVSNRPSGVSNRFSGSKSGNTASLTISGLQAEDEADYYCNSYTTSATLVFGGGTKLTVLS
0.0203
